Test system: RPS6KB1
Parameters: species or system human, MV4-11 + K-562 + COLO205 + SK-N-BE2 + OVCAR-8
Conditions: read-out: apparent Kd; compound concentrations:100 nM and 1000 nM (sheet 'Samples'); n = 1
READOUT: potency estimated from few doses (nM)
Answers are plain numbers, in nM.

Take a look at these entries with their results.
COMPOUND	MEASURED ON	READOUT	NUMERIC READOUT
C[C@@H]1CCNC(=O)c2cc3ccc(C(=O)Nc4nc5ccccc5n4CCCN(C)C)cc3n21	RPS6KB1	potency estimated from few doses	106
CCn1c(-c2nonc2N)nc2cncc(CNC3CCNCC3)c21 [SB-747651A]	RPS6KB1	potency estimated from few doses	22.2
Cl.Cl.NC[C@H](CC1CCCCC1)NC(=O)c1ccc(-c2ccnc3[nH]ccc23)s1.NC[C@H](CC1CCCCC1)NC(=O)c1ccc(-c2ccnc3[nH]ccc23)s1 [GSK1581428A]	RPS6KB1	potency estimated from few doses	179
CCn1c(-c2nonc2N)nc2cnc(Oc3cccc(NC(=O)c4ccc(OCCN5CCOCC5)cc4)c3)cc21.Cl [GSK269962B]	RPS6KB1	potency estimated from few doses	719
COc1ccc(O)c(C(=O)c2ccc(C(=O)O[C@@H]3CCCNC[C@H]3NC(=O)c3ccncc3)cc2)c1F.Cl	RPS6KB1	potency estimated from few doses	38.6

Fill in potency estimated from few doses for each of the 2 compounds listed.
1. CCn1c(-c2nonc2N)nc2cncc(C(=O)N3CCNCC3)c21.Cl
2. Cc1occc1-c1nc(N)c(OC[C@@H](N)Cc2c[nH]c3ccccc23)cc1-c1cc2c(C)n[nH]c2cn1 [GSK1660450B]

1. 115
2. 112

###

Tested on: EPHB3
Design: species or system human, MV4-11 + K-562 + COLO205 + SK-N-BE2 + OVCAR-8
Conditions: read-out: apparent Kd; compound concentrations:100 nM and 1000 nM (sheet 'Samples'); n = 1
Entry flag: Met if potency estimated from few doses reaches 2000 nM; Not met if it does not.

Would you say CN1C[C@@H]2Cn3c(c(C4=C(c5cn(C)c6ccccc56)C(=O)NC4=O)c4ccccc43)C[C@H]2C1.Cl shows potency estimated from few doses at minimum 2000 nM?
Not met

###

Test system: PKN3
Parameters: species or system human, MV4-11 + K-562 + COLO205 + SK-N-BE2 + OVCAR-8
Details: read-out: apparent Kd; compound concentrations:100 nM and 1000 nM (sheet 'Samples'); n = 1
READOUT: potency estimated from few doses (nM)
Give bare numbers, in nM.

> print(dat)
                                   compound  numeric.readout
1  Cl.Cl.Oc1cc(-c2nc(-c3ccccc3)[nH]c2-c2ccncc2)ccc1Cl.Oc1cc(-c2nc(-c3ccccc3)[nH]c2-c2ccncc2)ccc1Cl             1020
2  CS(=O)(=O)CCn1c(=O)c(Oc2ccc(F)cc2F)cc2cnc(NC3CCOCC3)nc21             1230

Would you mind listing potency estimated from few doses for each of the following compounds?
1. CC(C)N1CCC(n2cnc(-c3ccc(F)cc3)c2-c2ccnc(N)n2)CC1
2. NCCNS(=O)(=O)c1ccc(-c2ccnc3[nH]ccc23)cc1 [GSK977617A]

1: 1010; 2: 444
